FYI, the data here is from the Deep4Chem optical property database.

Experiment: photoluminescence quantum yield (fraction); solvent given as SMILES
Details: in CC#N
Recorded photoluminescence quantum yield, one value per entry.
Just the number.

>>> df
                            chemical_string  value_reported
0  CCOC(=O)c1c2c3c(ccc(Cl)c3c3cc4c(cc13)[Si](C)(C)O[Si]4(C)C)N(C)C2=O            0.45
1  COc1ccc2n1[B-](F)(F)[N+]1=C(SC#N)C=CC1=C2c1ccccc1            0.05
2          [C-]#[N+]c1ccc(-c2ccc(NC)cc2)cc1            0.88

Now, please, on to the next compound.
Exercise: What does the data say about its photoluminescence quantum yield? Entry: C(=C\N1CCCC1)/c1nc2ccccc2nc1-c1ccccc1
Solution: 0.199

====

Recorded photoluminescence quantum yield, one value per entry.
Experiment: photoluminescence quantum yield (fraction); solvent given as SMILES
Conditions: in Cc1ccccc1
Just the number.

In [3]: df
Out[3]:
                            chemical_string  value_reported
0     CN(C)c1ccc(/C=C/C=C/c2nc3ccccc3o2)cc1          0.0078
1  Cc1cc(C)c(B(c2c(C)cc(C)cc2C)N2c3ccccc3C3(c4ccccc4-c4ccccc43)c3ccccc32)c(C)c1           0.942

Exercise: What does the data say about its photoluminescence quantum yield? Entry: Oc1ccccc1-c1nc2c3ccccc3c3ccccc3c2o1
Solution: 0.003

Exercise: What does the data say about its photoluminescence quantum yield? Entry: CCN(CC)c1ccc2cc(/C=C/C(=O)c3cc4ccc(N(CC)CC)cc4oc3=O)c(=O)oc2c1
Solution: 0.68

====

Assay: photoluminescence quantum yield (fraction); solvent given as SMILES
Details: in C1CCCCC1
Classify on photoluminescence quantum yield using low group: < 0.04; middle group: ≥ 0.04 and < 0.3; high group: ≥ 0.3

Here's what some known entries look like.
                                   compound   label_value
0  CC(C)[Si]1(C(C)C)c2ccccc2-c2ccc(N(C)C)cc21  middle group
1  Cc1cc(C)c(B(c2c(C)cc(C)cc2C)N2c3ccccc3C(c3ccccc3)(c3ccccc3)c3ccccc32)c(C)c1    high group
2    CCC1(CC)c2cc(C=O)ccc2-c2ccc(N(C)C)cc21     low group
3  CCCCCCCCCCCCC(CCCCCCCCCC)Cn1c2cc(/C=C/c3nc4ccccc4s3)c3cccc4c5cccc6c(/C=C/c7nc8ccccc8s7)cc1c(c65)c2c34 (stereo not drawn)    high group
4  F[B-]1(F)n2c(nc(-c3ccccc3)c2-c2ccccc2)-c2cccc[n+]21    high group
5               Cc1cccc(Nc2ccccc2C(=O)O)c1C     low group

Exercise: For the record c1cc2ccc3cc4cccc5ccc6cc(c1)c2c3c6c54 , report the class its photoluminescence quantum yield corresponds to.
Solution: high group

Exercise: For the record COc1ccc2c3c(c4ccc(OC)cc4c2c1)C(C)(C)c1ccccc1-3 , report the class its photoluminescence quantum yield corresponds to.
Solution: middle group

Exercise: For the record Cc1ccc(C2=C3C=C(I)C=[N+]3[B-](F)(F)n3cccc32)cc1 , report the class its photoluminescence quantum yield corresponds to.
Solution: low group

Exercise: For the record C=Cc1cc(OC)cc(OC)c1 , report the class its photoluminescence quantum yield corresponds to.
Solution: middle group

Exercise: For the record Nc1cccc2cc3ccccc3cc12 , report the class its photoluminescence quantum yield corresponds to.
Solution: high group
